- ASSAY_EXPLANATION: Solubility of CBD in the Franz cell Receptor Fluid
- Type: physicochemical
- PROTOCOL_CONDITIONS: aqueous with cosolvent or surfactant or cyclodextrin; PBS, 0.01 wt % NaN3, 4 wt % hydroxypropyl-β-cyclodextrin, 1 wt % Brij O20
MEASURED_METRIC: solubility

[[record]]
compound = "C=C(C)C1CCC(C)=CC1c1c(O)cc(CCCCC)cc1O (stereo not shown)"
result = "> 50 µg/mL"

